- TEST TARGET: HiBit-BRG1 fusion protein (Homo sapiens, UniProt P51532)
- Construct: expressed in transfected cells
- Sequence (P51532 whole entry, the tested form may be a part): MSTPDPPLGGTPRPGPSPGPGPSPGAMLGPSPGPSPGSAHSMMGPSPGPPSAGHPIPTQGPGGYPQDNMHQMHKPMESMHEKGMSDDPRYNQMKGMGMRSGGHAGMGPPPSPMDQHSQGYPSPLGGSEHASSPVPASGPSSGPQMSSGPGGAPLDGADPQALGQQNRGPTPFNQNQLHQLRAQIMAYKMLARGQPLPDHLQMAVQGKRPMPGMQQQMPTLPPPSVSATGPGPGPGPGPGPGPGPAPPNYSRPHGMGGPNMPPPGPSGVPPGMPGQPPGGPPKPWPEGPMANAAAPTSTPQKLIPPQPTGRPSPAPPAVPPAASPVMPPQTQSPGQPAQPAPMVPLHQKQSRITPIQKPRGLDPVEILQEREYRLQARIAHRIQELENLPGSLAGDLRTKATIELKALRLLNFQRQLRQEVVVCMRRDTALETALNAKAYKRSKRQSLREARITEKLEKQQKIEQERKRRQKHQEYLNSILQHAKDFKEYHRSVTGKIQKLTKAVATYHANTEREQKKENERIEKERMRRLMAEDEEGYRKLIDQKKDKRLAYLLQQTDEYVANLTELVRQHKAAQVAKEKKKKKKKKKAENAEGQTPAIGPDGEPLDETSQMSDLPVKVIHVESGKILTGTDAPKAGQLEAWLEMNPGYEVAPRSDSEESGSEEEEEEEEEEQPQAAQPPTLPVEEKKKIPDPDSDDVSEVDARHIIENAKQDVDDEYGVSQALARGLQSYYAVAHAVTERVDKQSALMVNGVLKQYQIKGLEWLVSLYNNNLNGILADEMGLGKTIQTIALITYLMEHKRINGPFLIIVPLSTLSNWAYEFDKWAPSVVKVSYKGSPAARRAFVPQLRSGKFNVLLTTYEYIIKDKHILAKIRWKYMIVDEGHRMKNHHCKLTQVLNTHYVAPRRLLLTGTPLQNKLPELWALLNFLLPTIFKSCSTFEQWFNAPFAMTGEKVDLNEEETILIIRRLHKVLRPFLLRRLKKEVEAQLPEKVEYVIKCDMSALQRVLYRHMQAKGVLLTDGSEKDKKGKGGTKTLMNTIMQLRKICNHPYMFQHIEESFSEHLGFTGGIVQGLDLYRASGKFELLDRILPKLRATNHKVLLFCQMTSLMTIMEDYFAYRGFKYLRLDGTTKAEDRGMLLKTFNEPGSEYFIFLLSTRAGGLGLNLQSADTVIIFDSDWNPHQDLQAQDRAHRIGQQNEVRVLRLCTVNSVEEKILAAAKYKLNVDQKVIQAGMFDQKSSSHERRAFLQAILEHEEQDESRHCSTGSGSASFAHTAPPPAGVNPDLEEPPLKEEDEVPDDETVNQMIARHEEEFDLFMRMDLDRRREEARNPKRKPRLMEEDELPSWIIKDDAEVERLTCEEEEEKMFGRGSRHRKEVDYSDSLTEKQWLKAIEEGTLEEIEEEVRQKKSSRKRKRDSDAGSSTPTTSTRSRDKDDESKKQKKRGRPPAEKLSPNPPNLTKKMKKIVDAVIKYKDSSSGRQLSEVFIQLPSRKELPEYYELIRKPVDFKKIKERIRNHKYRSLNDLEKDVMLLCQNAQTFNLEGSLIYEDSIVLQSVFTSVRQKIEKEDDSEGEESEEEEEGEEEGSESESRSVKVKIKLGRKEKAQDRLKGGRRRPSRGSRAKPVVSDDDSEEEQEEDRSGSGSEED
- TEST DETAILS: HiBiT-BRG1 cell-based degradation assay (Nano-Glo HiBiT Lytic Detection, 24 h)
- MEASUREMENT SETUP: HeLa cells expressing HiBit-BRG1 and LgBit, read-out: BRG1 HiBit Degradation IC50
RECORDED METRIC: DC50

Note to self: DC50 recorded for Cc1ncsc1-c1ccc(CNC(=O)[C@@H]2C[C@@H](O)CN2C(=O)[C@@H](NC(=O)CCCCCNC(=O)C2(c3cc(-c4cccc(-c5csc(NC(=O)CNC(=O)c6ccn(S(C)(=O)=O)c6)n5)c4)ccn3)CC2)C(C)(C)C)cc1 was < 0.1 µM

Note to self: DC50 recorded for CS(=O)(=O)n1ccc(C(=O)N[C@@H](CCCCNC(=O)CCN2CC3(C2)CN(c2ccc4c(c2)C(=O)N(C2CCC(=O)NC2=O)C4=O)C3)C(=O)Nc2nc(-c3ccccc3)cs2)c1 (some centres unmarked) was > 10 µM
